- Test protocol: Metabolic stability in mouse liver microsomes assessed as compound remaining after 10 mins
- Format: ADME, Microsome
- Experimental context: read-out: Stability
Readout kind: remaining at 10 min
Include the unit right after the number.

Data request: # lookup: remaining at 10 min of CC1(C)CCN(c2ccccc2NC(=O)Nc2ccc(OC(F)(F)F)cc2)c2ccccc21
Data returned: 63%

----------
The molecules listed here are annotated with their solubility.
- Test protocol: Aqueous solubility of the amorphous form of compound in phosphate buffer at pH 6.5
- Type: physicochemical

Example molecules with recorded solubility:
- Molecule: "CC(C)(C)CN1CCCC2(C1)CN(c1ccccc1NC(=O)Nc1ccc(OC(F)(F)F)cc1)c1ccccc12 (stereo not given)"
  solubility: "< 1 µg/mL"
- Molecule: "O=C(Nc1ccc(OC(F)(F)F)cc1)Nc1ccccc1N1CC2(CCCCC2)c2ccccc21"
  solubility: "< 1 µg/mL"
- Molecule: "CC(C)(C)CN1CCC2(CC1)CN(c1ccccc1NC(=O)Nc1ccc(OC(F)(F)F)cc1)c1cnccc12"
  solubility: "25 µg/mL"
- Molecule: "CC(C)(C)CN1CCC2(C1)CN(c1ccccc1NC(=O)Nc1ccc(OC(F)(F)F)cc1)c1ccccc12 (stereo not given)"
  solubility: "1 µg/mL"

Then this molecule:
Data request: # lookup: solubility of CC(C)(C)CN1CCC2(CC1)CN(c1ccccc1NC(=O)Nc1ccc(OC(F)(F)F)cc1)c1ccncc12
Data returned: 428 µg/mL
